Tested on: HepG2
Procedure summary: Antiproliferative activity against human HepG2 cells after 24 hrs by MTT assay
Format: functional, cell-based
Recorded conditions: HepG2, 24 h
Readout label: IC50

// worked examples, IC50 included
Compound	Readout label	Measured value
CC(C)=CC[C@@H](OC(=O)CCCC[C@@H]1CCSC(c2ccc(Cl)cc2Cl)S1)C1=CC(=O)c2c(O)ccc(O)c2C1=O (stereo not given in full)	IC50	17.8 µM
CC(C)=CC[C@@H](OC(=O)CCCC[C@@H]1CCSC(c2cccc(C(F)(F)F)c2)S1)C1=CC(=O)c2c(O)ccc(O)c2C1=O (stereo not given in full)	IC50	4.53 µM
CC(C)=CC[C@@H](OC(=O)CCCC[C@@H]1CCSC(c2ccccc2Cl)S1)C1=CC(=O)c2c(O)ccc(O)c2C1=O (stereo not given in full)	IC50	11.3 µM
COc1ccccc1C1SCC[C@@H](CCCCC(=O)O[C@H](CC=C(C)C)C2=CC(=O)c3c(O)ccc(O)c3C2=O)S1 (stereo not given in full)	IC50	26.7 µM
CC(C)=CC[C@@H](OC(=O)CCCC[C@@H]1CCSC(c2ccc(Cl)cc2)S1)C1=CC(=O)c2c(O)ccc(O)c2C1=O (stereo not given in full)	IC50	6.69 µM
COc1ccc(C2SCC[C@@H](CCCCC(=O)O[C@H](CC=C(C)C)C3=CC(=O)c4c(O)ccc(O)c4C3=O)S2)cc1OC (stereo not given in full)	IC50	4.34 µM
CC(C)=CC[C@@H](OC(=O)CCCC[C@@H]1CCSC(c2ccccc2C)S1)C1=CC(=O)c2c(O)ccc(O)c2C1=O (stereo not given in full)	IC50	24.3 µM
CC(C)=CC[C@@H](OC(=O)CCCC[C@@H]1CCSC(c2ccc([N+](=O)[O-])cc2)S1)C1=CC(=O)c2c(O)ccc(O)c2C1=O (stereo not given in full)	IC50	20.4 µM

## Task Which IC50 reading was recorded for the compound CC(C)=CC[C@@H](OC(=O)CCCC[C@@H]1CCSC(c2cccc(Cl)c2Cl)S1)C1=CC(=O)c2c(O)ccc(O)c2C1=O (stereo not given in full) ?
## Result 5.08 µM

## Task Another: CC(C)=CC[C@@H](OC(=O)CCCC[C@@H]1CCSC(c2c(Cl)cccc2Cl)S1)C1=CC(=O)c2c(O)ccc(O)c2C1=O (stereo not given in full)
## Result 14.9 µM

## Task Another: CC(C)=CC[C@@H](OC(=O)CCCC[C@@H]1CCSC(c2ccc(C(F)(F)F)cc2)S1)C1=CC(=O)c2c(O)ccc(O)c2C1=O (stereo not given in full)
## Result 11.8 µM

## Task Another: COc1cc2c(c(OC)c1OC)-c1ccc(OC)c(=O)cc1[C@@H](NC(C)=O)CC2
## Result 4.65 µM

## Task Another: O=C(O)C(Cl)Cl
## Result > 100 µM

## Task Another: CC(C)=CC[C@@H](OC(=O)CCCC[C@@H]1CCSC(c2ccc(C)cc2)S1)C1=CC(=O)c2c(O)ccc(O)c2C1=O (stereo not given in full)
## Result 45.7 µM

## Task Another: CC(C)=CC[C@@H](O)C1=CC(=O)c2c(O)ccc(O)c2C1=O
## Result 6.92 µM
